Measured activation values are reported for all entries that follow.
system: Methionine sulfoxide reductase A (Bos taurus); assay: bovine MsrA activators, retest, confirmation, biochemical, absorbance, HTS (AID 602270); conditions: purified bovine MsrA, absorbance read-out; at 10.6 µM; active compounds read high;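 note: enzyme coupled to thioredoxin and thioredoxin reductase with NADPH; 0% = vehicle wells and 100% = reference activator wells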
This is one part of the list.
Just the number in %, nothing appended.

Inquiry: Record request: activation value, item Cc1ccc(S(=O)(=O)n2nc(OC(=O)C(C)(C)C)cc2N)cc1
Reply text: -1.8

Inquiry: Need activation, item O=C(CCN1CCN(c2ccccc2)CC1)NNC(=S)Nc1ccccc1
Reply text: -0.61

Inquiry: State the recorded activation for this entry: O=C1C(Sc2cccc(F)c2)=C[C@@]2(O)CC[C@@H](O)[C@]1(Sc1cccc(F)c1)[C@H]2O
Reply text: -4.14

Inquiry: Query: activation; subject: CN1c2ccc(C=O)c3c(C=O)ccc(c23)N(C)C1(C)C
Reply text: -1.46

Next compound, activation to be filled in.
Inquiry: Form field: reported activation of Cn1nnnc1SCC(=O)N1CCN(Cc2ccccc2)CC1
Reply text: -1.94

###

system: Methionine sulfoxide reductase A (Bos taurus); assay: bovine MsrA activators, retest, confirmation, biochemical, absorbance, HTS (AID 602270); details: purified bovine MsrA, absorbance read-out; at 10.6 µM; active compounds read high;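 note: enzyme coupled to thioredoxin and thioredoxin reductase with NADPH; 0% = vehicle wells and 100% = reference activator wells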
The list shows a part of the results. Active and inactive are the calls of the source. Rule as the data show it: active = activation above about 4%; inactive = the rest.
ENDPOINT LABEL: activation

Here are 2 molecules together with their reported answers.
Inquiry: Recorded activation for Cc1ccc(C)c(NC(=O)CSc2nnc(Cc3cccn3C)n2-c2ccc(F)cc2)c1 , please?
Reply text: 2.75% (inactive)

Inquiry: Would you mind telling me what activation value was observed for CC(=O)NC(Cc1c[nH]c2ccccc12)C(=O)O (stereo unspecified) ?
Reply text: -0.4% (inactive)

Next:
Inquiry: State the recorded activation for this entry: O=C(OCC(=O)N1CCN(c2ccccc2)CC1)c1ccc([N+](=O)[O-])s1
Reply text: 3.98% (active)

Inquiry: Can you share its activation? I mean this molecule: NC1=CC(=O)C(=O)c2cccnc21
Reply text: 5.78% (active)

Inquiry: Consider the molecule shown here: O=C(Cc1ccc(NC(=O)C2CCCN(C(=O)C3CCCCC3)C2)cc1)Nc1cccc(C(=O)N2CCCCC2)c1 (stereo unspecified) What is its recorded activation?
Reply text: -3.28% (inactive)

Inquiry: activation lookup needed for CCCCNC(=O)OC(C)CNC(=O)OC (stereo unspecified) , thanks.
Reply text: -2.15% (inactive)

Inquiry: Entry CCN(CC)CCCC(C)n1c2nc(=O)[nH]c(=O)c-2nc2cc(Cl)ccc21 (stereo unspecified) : reported activation = ?
Reply text: 8.41% (active)

Inquiry: Can you share its activation? I mean this molecule: COc1cc(OC)c(C(=O)NCc2ccc3c(c2)OCO3)cc1OC
Reply text: 2.87% (inactive)

Inquiry: Need activation of COc1ccccc1-n1cn[nH]c1=S , thanks.
Reply text: -0.06% (inactive)

Inquiry: State the recorded activation for this entry: COC(=O)CN1C(=O)C(O)=C(C(C)=O)C1c1ccc([N+](=O)[O-])cc1 (stereo unspecified)
Reply text: -2.94% (inactive)

Inquiry: Looking for the measured activation of Cc1ccc(COC(=O)CN2C(=O)NC3(CCCC3)C2=O)cc1 , can you help?
Reply text: -1.66% (inactive)

###

tested on: Methionine sulfoxide reductase A (Bos taurus); experiment: bovine MsrA activators, retest, confirmation, biochemical, absorbance, HTS (AID 602270); settings: purified bovine MsrA, absorbance read-out; at 10.6 µM; active compounds read high;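 note: enzyme coupled to thioredoxin and thioredoxin reductase with NADPH; 0% = vehicle wells and 100% = reference activator wells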
This is one part of the list.
ENDPOINT LABEL: activation (%)
Number in %, nothing else.

Inquiry: What does the data say about its activation? Entry: O=C(CSc1n[nH]c(-c2cccs2)n1)N1CCCCC1
Reply text: -1.33

Inquiry: Quick one: activation of O=C(NC1=CC(=O)c2ccccc2C1=O)c1ccccc1 ?
Reply text: 14.4

Inquiry: Item under review: CCN(CC(=O)Nc1ccccc1OC)C(=O)CC1CC2CCC1C2 (configuration not stated) . Reported activation?
Reply text: 0.76

New cases:
Inquiry: Find the recorded activation belonging to CC1(C)S[C@@H]2[C@H](NC(=O)COc3ccccc3)C(=O)N2C1C(=O)OCc1ccccc1 (some centres not stated) and report it.
Reply text: 0.74

###

test system: Methionine sulfoxide reductase A (Bos taurus); experiment: bovine MsrA activators, retest, confirmation, biochemical, absorbance, HTS (AID 602270); details: purified bovine MsrA, absorbance read-out; at 10.6 µM; active compounds read high;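 note: enzyme coupled to thioredoxin and thioredoxin reductase with NADPH; 0% = vehicle wells and 100% = reference activator wells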
Some of the results follow.
ENDPOINT LABEL: activation (%)
The answer is to be given in %; state only the numeric part.

Recorded activation, per entry:
Inquiry: # query: activation of entry CSCCC1NC(=O)N(CC(=O)Nc2cccc(S(=O)(=O)N3CCCCCC3)c2)C1=O (stereo not drawn)
Reply text: -0.9

Inquiry: Look up activation for this compound: CCOc1ccc2[nH]c(=S)sc2c1
Reply text: 1.68

Inquiry: Need activation of COc1ccc(Cl)cc1NS(=O)(=O)c1cccc(C(=O)NCC2CCCO2)c1 (stereo not drawn) , thanks.
Reply text: 2.13

Further cases:
Inquiry: For the compound shown here, CC(=O)N(O)CCCCCNC(=O)CCC(=O)N(O)CCCCCNC(=O)CCC(=O)N(O)CCCCCNC(=O)CCC(=O)O , give the reported activation.
Reply text: -3.63

Inquiry: Form field: reported activation of Cc1noc(NS(=O)(=O)c2ccc(NC(=O)C34CCC(CC3)C4)cc2)c1C
Reply text: -0.66

Inquiry: Can you share its activation? I mean this compound: COc1ccc(C(CNC(=O)c2cc3c(s2)CCCC3)N2CCOCC2)cc1 (stereo not drawn)
Reply text: 0.61

Inquiry: Reported activation, compound COc1cc(NC(=O)COC(=O)c2ccc([N+](=O)[O-])s2)cc(OC)c1OC : ____
Reply text: 4.75

Inquiry: Any idea what its activation is? The compound is S=c1[nH]nc(NCCc2ccccc2)s1
Reply text: 7.45
